tested on: HEK293; assay: Antiproliferative activity against HEK293 cells after 48 hrs by MTT assay; type: cell-based; conditions: Homo sapiens, HEK293, 48 h
Outcome measure: IC50 (nM)
Answer in nM, number only, no unit symbol.

[in] Fill in IC50 for record COc1cc2c(c(OC)c1OC)-c1ccc(OC)c(=O)cc1[C@@H](NC(C)=O)CC2
[out] 10.2

====

experiment: Antiproliferative activity against human HCT8/T cells after 48 hrs by MTT assay; format: functional, cell-based; settings: HCT-8, 48 h
Listed below: IC50 values for each entry.

* COc1ccc(N(C)c2cc(C)nc3ccccc23)cc1NC(=O)CCCCl | 0.0035 µM

[in] Read the entry CC(=O)O[C@H]1C(=O)[C@@]2(C)[C@H]([C@H](OC(=O)c3ccccc3)[C@]3(O)C[C@H](OC(=O)[C@H](O)[C@@H](NC(=O)c4ccccc4)c4ccccc4)C(C)=C1C3(C)C)[C@]1(OC(C)=O)CO[C@@H]1C[C@@H]2O and write its reported IC50.
[out] 9.88 µM

====

test: Solubility of the compound in physiological saline at 1 mg; format: physicochemical; conditions: buffer
Outcome measure: solubility

• CSc1ccc(N(C)c2cc(C)nc3ccccc23)cc1 = Soluble
• COc1ccc(N(C)c2cc(C)nc3ccccc23)cc1NC(=O)CCCCl = Soluble

====

test: Solubility of the compound in physiological saline at 1 mg; format: physicochemical; settings: buffer
Outcome measure: solubility

* CCC(=O)Nc1cc(N(C)c2cc(C)nc3ccccc23)ccc1OC | Soluble
* COc1ccc(N(C)c2cc(C)nc3ccccc23)cc1NC(C)=O | Soluble
* C=CC(=O)Nc1cc(N(C)c2cc(C)nc3ccccc23)ccc1OC | Soluble
